- target.of.assay: (Homo sapiens)
- Sequence (P43220 24-463): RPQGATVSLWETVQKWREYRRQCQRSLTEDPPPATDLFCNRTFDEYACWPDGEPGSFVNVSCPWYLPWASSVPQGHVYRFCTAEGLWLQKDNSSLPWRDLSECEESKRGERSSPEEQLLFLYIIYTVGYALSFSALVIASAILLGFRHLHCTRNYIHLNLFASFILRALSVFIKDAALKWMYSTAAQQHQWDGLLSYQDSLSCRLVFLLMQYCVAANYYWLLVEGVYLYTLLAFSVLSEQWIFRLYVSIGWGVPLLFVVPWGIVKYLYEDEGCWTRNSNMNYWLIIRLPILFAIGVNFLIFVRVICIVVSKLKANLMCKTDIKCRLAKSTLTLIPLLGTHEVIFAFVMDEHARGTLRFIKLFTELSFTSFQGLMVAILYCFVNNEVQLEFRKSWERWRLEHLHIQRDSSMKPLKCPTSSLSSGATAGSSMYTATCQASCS
- assay.details: h-GLP-1 activity assay (cAMP HTRF, HEK293 cells with stable expression of human GLP-1)
- Format: cell-based
- condition.details: relative EC50, 10 nM human GLP-1 set as 100% response, 30 min at 37° C.
readout.type: EC50

INSERT INTO results (compound, result) VALUES
  ('C[C@H]1c2c(nn(-c3ccc(F)c(Cl)c3)c2-n2ccn(-c3ccc4c(cnn4C)c3F)c2=O)CCN1C(=O)c1cc2cc([C@@H]3CCOC(C)(C)C3)ccn2c1C1(c2noc(=O)[nH]2)CC1 (single isomer, unassigned)', '< 20 nM'),
  ('C[C@H]1c2c(nn(-c3ccc(F)c(C4CC4)c3)c2-n2ccn(-c3ccc4c(cnn4C)c3F)c2=O)CCN1C(=O)c1cc2cc([C@H]3CCOC(C)(C)C3)cnn2c1C1(c2noc(=O)[nH]2)CC1 (single isomer, unassigned)', '< 20 nM'),
  ('C[C@H]1c2c(nn(-c3ccc(F)c(C(F)(F)F)c3)c2-n2ccn(-c3ccc4c(cnn4C)c3F)c2=O)CCN1C(=O)c1cn2cc([C@@H]3CCOC(C)(C)C3)ccc2c1C1(c2noc(=O)[nH]2)CC1 (single isomer, unassigned)', '< 20 nM'),
  ('Cc1cc(-n2nc3c(c2-n2ccn(-c4ccc5c(cnn5C)c4F)c2=O)[C@H](C)N(C(=O)c2cn4cc([C@@H]5CCOC(C)(C)C5)ccc4c2[C@]2(c4noc(=O)[nH]4)C[C@@H]2C)CC3)cc(C)c1F (single isomer, unassigned)', '20 to 100 nM'),
  ('Cc1cc(-n2nc3c(c2-n2ccn(-c4ccn5cncc5c4)c2=O)[C@H](C)N(C(=O)c2cn4cc([C@H]5CCOC(C)(C)C5)ccc4c2C2(c4noc(=O)[nH]4)CC2)CC3)cc(C)c1F (single isomer, unassigned)', '20 to 100 nM'),
  ('Cc1cc(-n2nc3c(c2-n2ccn(-c4ccn5c(C)nnc5c4)c2=O)[C@H](C)N(C(=O)c2cn4cc([C@@H]5CCOC(C)(C)C5)ccc4c2C2(c4noc(=O)[nH]4)CC2)CC3)cc(C)c1F (single isomer, unassigned)', '< 20 nM'),
  ('C[C@H]1c2c(nn(-c3ccc(F)c(F)c3)c2-n2ccn(-c3ccc4c(cnn4C)c3F)c2=O)CCN1C(=O)c1cc2cc([C@@H]3CCOC(C)(C)C3)ccn2c1C1(c2noc(=O)[nH]2)CC1 (single isomer, unassigned)', '< 20 nM'),
  ('C[C@H]1c2c(nn(-c3ccc(F)c(C4CC4)c3)c2-n2ccn(-c3ccc4c(cnn4C)c3F)c2=O)CCN1C(=O)c1cc2cc([C@@H]3CCOC(C)(C)C3)cnn2c1C1(c2noc(=O)[nH]2)CC1 (single isomer, unassigned)', '20 to 100 nM'),
  ('Cc1cc(-n2nc3c(c2-n2ccn(-c4ccc5c(cnn5C)c4F)c2=O)[C@H](C)N(C(=O)c2cc4cc(C5CCOC(C)(C)C5)ccc4n2C2(CNS(C)(=O)=O)CC2)CC3)cc(C)c1F (mixture of isomers)', '> 100 nM'),
  ('Cc1cc(-n2nc3c(c2-n2ccn(-c4ccc5c(cnn5C)c4F)c2=O)[C@H](C)N(C(=O)c2cn4cc([C@@H]5CCOC(C)(C)C5)ccc4c2Cc2noc(=O)[nH]2)CC3)cc(C)c1F (single isomer, unassigned)', '< 20 nM'),
  ('C[C@H]1c2c(nn(C34CC(C3)C4)c2-n2ccn(-c3ccc4c(cnn4C)c3F)c2=O)CCN1C(=O)c1cc2cc([C@@H]3CCOC(C)(C)C3)ccc2n1C1(c2noc(=O)[nH]2)CC1 (single isomer, unassigned)', '20 to 100 nM'),
  ('Cc1cc(-n2nc3c(c2-n2ccn(-c4ccc5c(cnn5C)c4F)c2=O)[C@H](C)N(C(=O)c2cc4cc([C@H]5CCOC(C)(C)C5)ccc4n2Cc2cnc(O)s2)CC3)cc(C)c1F (single isomer, unassigned)', '> 100 nM'),
  ('C[C@H]1c2c(nn([C@@H](C)c3ccc(F)cc3)c2-n2ccn(-c3ccc4c(cnn4C)c3F)c2=O)CCN1C(=O)c1cc2cc([C@H]3CCOC(C)(C)C3)ccc2n1C1(c2noc(=O)[nH]2)CC1 (single isomer, unassigned)', '> 100 nM'),
  ('Cn1ncc2c(F)c(-n3ccn(-c4c(-c5ccc(F)cc5)nn5c4CN(C(=O)c4cc6cc(C7CCOCC7)ccc6n4-c4ccccc4C(=O)O)CC5)c3=O)ccc21', '> 100 nM'),
  ('Cc1cc(-n2nc3c(c2-n2ccn(-c4ccn5c(C)ncc5c4)c2=O)[C@H](C)N(C(=O)c2cn4cc([C@H]5CCOC(C)(C)C5)ccc4c2C2(c4noc(=O)[nH]4)CC2)CC3)cc(C)c1F (single isomer, unassigned)', '< 20 nM'),
  ('C[C@H]1c2c(nn(-c3ccc(F)c(C4CC4)c3)c2-n2ccn(-c3ccc4c(cnn4C)c3F)c2=O)CCN1C(=O)c1cc2cc([C@H]3CCOC(C)(C)C3)c(F)cn2c1C1(c2noc(=O)[nH]2)CC1 (single isomer, unassigned)', '< 20 nM');
